tested on: TK-10 renal; test: NCI tumour cell line growth inhibition, 48 h
Consider the following compounds and their measured TGI readings.

The following compounds have reported results that may help.
compound=CC1=NS(=O)(=O)c2ccccc2N1 system_under_test="TK-10 renal" reported="> 100 µM"
compound=CC(=N/N=C/c1ccccn1)/C(C)=N/N=C(C)/C(C)=N/N=C(C)/C(C)=N/N=C(C)/C(C)=N\N=C\c1ccccn1 system_under_test="TK-10 renal" reported="> 100 µM"
compound=O=C1NCCN1/N=C/c1c(Cl)n(-c2ccccc2)c2ccccc12 system_under_test="TK-10 renal" reported="43.6 µM"
compound="N#CC12C(=O)N=C(N)C1(C#N)C(c1ccco1)NC1=C2CCCC1 (configuration not stated)" system_under_test="TK-10 renal" reported="> 100 µM"
compound="CN(C)c1ccc(S(=O)Nc2ccccc2)cc1 (configuration not stated)" system_under_test="TK-10 renal" reported="> 100 µM"

Reported TGI, compound O=C(/C=C/c1ccc(Cl)cc1)c1ccc(Nc2ccnc3cc(Cl)ccc23)cc1 : ____
> 100 µM

Which measured TGI value corresponds to CC1=CC(O)(c2ccc(-c3ccccc3Cl)cc2)OC1=O (configuration not stated) ?
> 100 µM

// returns reported TGI for input COC(=O)C1=C(C)NC(C)=C(C(=O)OCCCN2CCC(c3ccccc3)(c3ccccc3)CC2)C1c1cccc([N+](=O)[O-])c1 (configuration not stated)
7.34 µM

Field request: TGI | item: COc1cc(/C=C2\CN(S(=O)(=O)c3ccccc3)C/C(=C\c3cc(CN4CCCC4)c(O)c(OC)c3)C2=O)cc(CN2CCCC2)c1O
7.73 µM

Entry NC1(C(=O)OCc2ccccc2)CCCC1 has what TGI?
> 100 µM
